settings: 338.15 K; 101.33 kPa; Liquid; Concentric cylinders viscometry
measurementName: viscosity (mPa·s)
Write it as a number; the unit mPa·s goes unstated.

Challenge: May I ask what viscosity has been recorded for CCCCCCCC/C=C\CCCCCCCC(=O)[O-].CCCCCCCC[N+](CCCCCCCC)(CCCCCCCC)CCCCCCCC [tetraoctylammonium oleate] ?
Response given: 117

Challenge: Repeat with CCCCCCCC/C=C\CCCCCCCC(=O)[O-].CCCCCCCC[N+](C)(CCCCCCCC)CCCCCCCC [methyltrioctylammonium oleate]
Response given: 179.2

Challenge: Query CCCCCCCC/C=C\CCCCCCCC(=O)[O-].CCCCCC[N+](CCCCCC)(CCCCCC)CCCCCC [tetrahexylammonium oleate] next
Response given: 129.5

Challenge: Try CCCCC(CC)CCC(=O)[O-].CCCCCCCC[N+](C)(CCCCCCCC)CCCCCCCC [methyltrioctylammonium 4-ethyloctanoate] next.
Response given: 246.3

* * *

details: 298.15 K; 101.33 kPa; Liquid; Vibrating tube method
measurementName: mass density (kg/m3)
Report only the number, with the unit kg/m3 understood.

Challenge: Need mass density of CCCCCCCC/C=C\CCCCCCCC(=O)[O-].CCCCCCCC[N+](CCCCCCCC)(CCCCCCCC)CCCCCCCC [tetraoctylammonium oleate] , thanks.
Response given: 875.3

Challenge: Try this molecule next: CCCCC(CC)CCC(=O)[O-].CCCCCCCC[N+](C)(CCCCCCCC)CCCCCCCC [methyltrioctylammonium 4-ethyloctanoate]
Response given: 890.1

Challenge: Same question, CCCCCCCC/C=C\CCCCCCCC(=O)[O-].CCCCCC[N+](CCCCCC)(CCCCCC)CCCCCC [tetrahexylammonium oleate] this time
Response given: 886.9

Challenge: Now this one: CCCCCCCC/C=C\CCCCCCCC(=O)[O-].CCCCCCCC[N+](C)(CCCCCCCC)CCCCCCCC [methyltrioctylammonium oleate]
Response given: 887.5

* * *

conditions: 328.15 K; 101.33 kPa; Liquid; Vibrating tube method
measurementName: mass density (kg/m3)
Your answer is read as kg/m3, so omit the unit and give the number.

Challenge: Quick one: mass density for CCCCCCCC/C=C\CCCCCCCC(=O)[O-].CCCCCC[N+](CCCCCC)(CCCCCC)CCCCCC [tetrahexylammonium oleate] ?
Response given: 868.8

Challenge: For CCCCCCCC/C=C\CCCCCCCC(=O)[O-].CCCCCCCC[N+](CCCCCCCC)(CCCCCCCC)CCCCCCCC [tetraoctylammonium oleate] then?
Response given: 857.1

Challenge: Now the compound CCCCC(CC)CCC(=O)[O-].CCCCCCCC[N+](C)(CCCCCCCC)CCCCCCCC [methyltrioctylammonium 4-ethyloctanoate]
Response given: 871.8

Challenge: Another compound to check: CCCCCCCC/C=C\CCCCCCCC(=O)[O-].CCCCCCCC[N+](C)(CCCCCCCC)CCCCCCCC [methyltrioctylammonium oleate]
Response given: 869.5

* * *

details: 338.15 K; 101.33 kPa; Liquid; Vibrating tube method
Give mass density for every item shown.
Reply with just the number (in kg/m3).

Challenge: // query mass density value for entry CCCCCCCC/C=C\CCCCCCCC(=O)[O-].CCCCCC[N+](CCCCCC)(CCCCCC)CCCCCC [tetrahexylammonium oleate]
Response given: 862.9

Challenge: Moving on to the next compound: CCCCC(CC)CCC(=O)[O-].CCCCCCCC[N+](C)(CCCCCCCC)CCCCCCCC [methyltrioctylammonium 4-ethyloctanoate]
Response given: 865.8

Challenge: Request: CCCCCCCC/C=C\CCCCCCCC(=O)[O-].CCCCCCCC[N+](CCCCCCCC)(CCCCCCCC)CCCCCCCC [tetraoctylammonium oleate]
Response given: 851.1

Challenge: Follow-up entry: CCCCCCCC/C=C\CCCCCCCC(=O)[O-].CCCCCCCC[N+](C)(CCCCCCCC)CCCCCCCC [methyltrioctylammonium oleate]
Response given: 863.6

* * *

Record form. Attribute: viscosity. Fill in for each entry.
details: 328.15 K; 101.33 kPa; Liquid; Concentric cylinders viscometry
Please respond with the number in mPa·s and leave the unit unwritten.

Challenge: State the recorded viscosity for this entry: CCCCCCCC/C=C\CCCCCCCC(=O)[O-].CCCCCCCC[N+](C)(CCCCCCCC)CCCCCCCC [methyltrioctylammonium oleate]
Response given: 293.8

Challenge: Ok, now CCCCCCCC/C=C\CCCCCCCC(=O)[O-].CCCCCC[N+](CCCCCC)(CCCCCC)CCCCCC [tetrahexylammonium oleate]
Response given: 215.5

Challenge: Follow-up item: CCCCC(CC)CCC(=O)[O-].CCCCCCCC[N+](C)(CCCCCCCC)CCCCCCCC [methyltrioctylammonium 4-ethyloctanoate]
Response given: 434.7

Challenge: Can you check CCCCCCCC/C=C\CCCCCCCC(=O)[O-].CCCCCCCC[N+](CCCCCCCC)(CCCCCCCC)CCCCCCCC [tetraoctylammonium oleate] next?
Response given: 185.4

* * *

settings: 343.15 K; 101.33 kPa; Liquid; Vibrating tube method
Answer each item with its documented mass density.
All answers are understood in kg/m3, so give the number only.

Challenge: Recorded mass density of CCCCCCCC/C=C\CCCCCCCC(=O)[O-].CCCCCC[N+](CCCCCC)(CCCCCC)CCCCCC [tetrahexylammonium oleate] , please.
Response given: 859.9

Challenge: Please give the result for CCCCCCCC/C=C\CCCCCCCC(=O)[O-].CCCCCCCC[N+](CCCCCCCC)(CCCCCCCC)CCCCCCCC [tetraoctylammonium oleate] too.
Response given: 848.2

Challenge: Same thing, different molecule: CCCCC(CC)CCC(=O)[O-].CCCCCCCC[N+](C)(CCCCCCCC)CCCCCCCC [methyltrioctylammonium 4-ethyloctanoate]
Response given: 862.8

Challenge: Also check CCCCCCCC/C=C\CCCCCCCC(=O)[O-].CCCCCCCC[N+](C)(CCCCCCCC)CCCCCCCC [methyltrioctylammonium oleate]
Response given: 860.7

* * *

Provide the reported viscosity of each item.
conditions: 308.15 K; 101.33 kPa; Liquid; Concentric cylinders viscometry
Numbers after ± are expanded uncertainties.
Output should be the measured figure followed by the unit it is expressed in.

Challenge: Fill in the blank: the reported viscosity of CCCCCCCC/C=C\CCCCCCCC(=O)[O-].CCCCCC[N+](CCCCCC)(CCCCCC)CCCCCC [tetrahexylammonium oleate] is ____.
Response given: 749 ± 53 mPa·s

Challenge: Now try CCCCCCCC/C=C\CCCCCCCC(=O)[O-].CCCCCCCC[N+](CCCCCCCC)(CCCCCCCC)CCCCCCCC [tetraoctylammonium oleate] .
Response given: 575.4 ± 40 mPa·s

Challenge: Field entry: CCCCCCCC/C=C\CCCCCCCC(=O)[O-].CCCCCCCC[N+](C)(CCCCCCCC)CCCCCCCC [methyltrioctylammonium oleate]
Response given: 957.7 ± 70 mPa·s

Challenge: Now try CCCCC(CC)CCC(=O)[O-].CCCCCCCC[N+](C)(CCCCCCCC)CCCCCCCC [methyltrioctylammonium 4-ethyloctanoate] .
Response given: 1672.3 ± 220 mPa·s

* * *

Provide the recorded mass density for the entries that follow.
details: 323.15 K; 101.33 kPa; Liquid; Vibrating tube method
The reply should contain only the number, in kg/m3.

Challenge: I'd like to know its mass density. The compound in question is CCCCCCCC/C=C\CCCCCCCC(=O)[O-].CCCCCCCC[N+](C)(CCCCCCCC)CCCCCCCC [methyltrioctylammonium oleate]
Response given: 872.5

Challenge: Another: CCCCC(CC)CCC(=O)[O-].CCCCCCCC[N+](C)(CCCCCCCC)CCCCCCCC [methyltrioctylammonium 4-ethyloctanoate]
Response given: 874.9

Challenge: # iterate: CCCCCCCC/C=C\CCCCCCCC(=O)[O-].CCCCCCCC[N+](CCCCCCCC)(CCCCCCCC)CCCCCCCC [tetraoctylammonium oleate]
Response given: 860.1

Challenge: And what about the compound CCCCCCCC/C=C\CCCCCCCC(=O)[O-].CCCCCC[N+](CCCCCC)(CCCCCC)CCCCCC [tetrahexylammonium oleate] ?
Response given: 871.8

* * *

settings: 323.15 K; 101.33 kPa; Liquid; Concentric cylinders viscometry
measurementName: viscosity (mPa·s)
Give just the numeric value; mPa·s need not be written.

Challenge: Given CCCCCCCC/C=C\CCCCCCCC(=O)[O-].CCCCCC[N+](CCCCCC)(CCCCCC)CCCCCC [tetrahexylammonium oleate] , state its recorded viscosity.
Response given: 285.3

Challenge: Then this compound: CCCCC(CC)CCC(=O)[O-].CCCCCCCC[N+](C)(CCCCCCCC)CCCCCCCC [methyltrioctylammonium 4-ethyloctanoate]
Response given: 592.1

Challenge: Try the compound CCCCCCCC/C=C\CCCCCCCC(=O)[O-].CCCCCCCC[N+](CCCCCCCC)(CCCCCCCC)CCCCCCCC [tetraoctylammonium oleate]
Response given: 239.4

Challenge: Ok, now CCCCCCCC/C=C\CCCCCCCC(=O)[O-].CCCCCCCC[N+](C)(CCCCCCCC)CCCCCCCC [methyltrioctylammonium oleate]
Response given: 384.4
